# credit: patent US10420815B2

tested on: MSSA (ATCC 29213); assay: MIC (broth dilution) and MBC (spotting) of phenolic antioxidants and bacitracin; type: cell-based, Staphylococcus aureus; details: antioxidant 0.5 μg/ml, compared to bacitracin alone
endpoint: fold decrease of bacitracin MBC by antioxidant (fold)
Give just the numeric value; fold need not be written.

# annotated cases, reported fold decrease of bacitracin MBC by antioxidant shown
| compound | obs.value |
| --- | --- |
| O=C(O[C@@H]1Cc2c(O)cc(O)cc2O[C@@H]1c1cc(O)c(O)c(O)c1)c1cc(O)c(O)c(O)c1 [Epigallocatechin gallate, epigallocatechin gallate] | 16 |
| O=C(OC[C@H]1O[C@@H](OC(=O)c2cc(O)c(O)c(OC(=O)c3cc(O)c(O)c(O)c3)c2)[C@H](OC(=O)c2cc(O)c(O)c(OC(=O)c3cc(O)c(O)c(O)c3)c2)[C@@H](OC(=O)c2cc(O)c(O)c(OC(=O)c3cc(O)c(O)c(O)c3)c2)[C@@H]1OC(=O)c1cc(O)c(O)c(OC(=O)c2cc(O)c(O)c(O)c2)c1)c1cc(O)c(O)c(OC(=O)c2cc(O)c(O)c(O)c2)c1 | 8 |

Next compound, please.
Prompt: Please list fold decrease of bacitracin MBC by antioxidant recorded for the compound CCCOC(=O)c1cc(O)c(O)c(O)c1 [Propyl gallate, propyl gallate]
Response: 16

---

tested on: MSSA (ATCC 29213); assay: MIC (broth dilution) and MBC (spotting) of phenolic antioxidants and bacitracin; format: cell-based, Staphylococcus aureus; details: antioxidant alone
Examples of compounds with documented MIC follow.
Express it in mg/L; write the number only.

Known MIC results, listed for orientation:
| compound | MIC [mg/L] |
| --- | --- |
| CCCOC(=O)c1cc(O)c(O)c(O)c1 [Propyl gallate, propyl gallate] | 64 |
| CCCCCCCCCCCCOC(=O)c1cc(O)c(O)c(O)c1 [Lauryl gallate, lauryl gallate] | 128 |

Prompt: Give reported MIC value for O=C(OC[C@H]1O[C@@H](OC(=O)c2cc(O)c(O)c(OC(=O)c3cc(O)c(O)c(O)c3)c2)[C@H](OC(=O)c2cc(O)c(O)c(OC(=O)c3cc(O)c(O)c(O)c3)c2)[C@@H](OC(=O)c2cc(O)c(O)c(OC(=O)c3cc(O)c(O)c(O)c3)c2)[C@@H]1OC(=O)c1cc(O)c(O)c(OC(=O)c2cc(O)c(O)c(O)c2)c1)c1cc(O)c(O)c(OC(=O)c2cc(O)c(O)c(O)c2)c1 [Tannic acid, tannic acid]
Response: 128

---

test system: MRSA 3876; assay: microbe, parasite or virus in culture; assay type: cell-based, Staphylococcus aureus; conditions: Staphylococcus aureus; MRSA 3876 (human/skin); read-out: MIC
endpoint: MIC

Some compounds with known MIC results, for comparison:
| compound | MIC |
| --- | --- |
| CCCCOC(=O)c1cc(O)c(O)c(O)c1 [Butyl gallate (BG), Butyl gallate] | 512 µg/mL |
| CC[C@H]1OC(=O)[C@H](C)[C@@H](O[C@H]2C[C@@](C)(OC)[C@@H](O)[C@H](C)O2)[C@H](C)[C@@H](O[C@@H]2O[C@H](C)C[C@H](N(C)C)[C@H]2O)[C@](C)(O)C[C@@H](C)C(=O)[C@H](C)[C@@H](O)[C@]1(C)O [ERY, erythromycin] | ≥ 128 µg/mL |
| COC(=O)c1cc(O)c(O)c(O)c1 [Methyl gallate (MG), methyl gallate] | > 1020 µg/mL |

Prompt: Answer with reported MIC of CCCCCCCCCCCCCCCCCCOC(=O)c1cc(O)c(O)c(O)c1 [Stearyl gallate (SG), stearyl gallate]
Response: > 1020 µg/mL

Prompt: Specify MIC for CCCOC(=O)c1cc(O)c(O)c(O)c1 [Propyl gallate, propyl gallate] and stop.
Response: > 1020 µg/mL

Prompt: Consider the compound O=C(N[C@H](CO)[C@H](O)c1ccc([N+](=O)[O-])cc1)C(Cl)Cl [CL, chloramphenicol] . State its measured MIC.
Response: < 0.12 µg/mL

Prompt: Indicate the recorded MIC value for this compound: CCn1cc(C(=O)O)c(=O)c2cc(F)c(N3CCNCC3)cc21 [NOR, norfloxacin]
Response: 0.25 µg/mL

Prompt: In one line, give reported MIC of the entry CCCCCCCCCCCCOC(=O)c1cc(O)c(O)c(O)c1 [Lauryl gallate, lauryl gallate] .
Response: 64 µg/mL

Prompt: Give me measured MIC, please, for this compound: CCOC(=O)c1cc(O)c(O)c(O)c1 [Ethyl gallate (EG), ethyl gallate]
Response: > 1020 µg/mL

Prompt: Answer with reported MIC of Cc1onc(-c2ccccc2)c1C(=O)N[C@@H]1C(=O)N2[C@@H]1SC(C)(C)[C@@H]2C(=O)O [OXA, oxacillin]
Response: 128 µg/mL

---

test system: MRSA 3A585; experiment: microbe, parasite or virus in culture; type: cell-based, Staphylococcus aureus; conditions: Staphylococcus aureus; MRSA 3A585 (human/blood); read-out: MIC
endpoint: MIC

// below: answered molecules
| molecule | endpoint | obs.value |
| --- | --- | --- |
| O=C(N[C@H](CO)[C@H](O)c1ccc([N+](=O)[O-])cc1)C(Cl)Cl | MIC | ≤ 0.25 µg/mL |
| CCCOC(=O)c1cc(O)c(O)c(O)c1 [Propyl gallate, propyl gallate] | MIC | > 1020 µg/mL |

Kindly consider the entry below.
Prompt: Entry CCOC(=O)c1cc(O)c(O)c(O)c1 [Ethyl gallate (EG), ethyl gallate] needs its MIC filled in; supply it.
Response: > 1020 µg/mL

---

system: MRSA 3A585; test: microbe, parasite or virus in culture; type: cell-based, Staphylococcus aureus; details: Staphylococcus aureus; MRSA 3A585 (human/blood); read-out: MIC
endpoint: MIC

| compound | MIC |
| --- | --- |
| Cc1onc(-c2ccccc2)c1C(=O)N[C@@H]1C(=O)N2[C@@H]1SC(C)(C)[C@@H]2C(=O)O | > 2 µg/mL |
| CCCCOC(=O)c1cc(O)c(O)c(O)c1 [Butyl gallate (BG), Butyl gallate] | 512 µg/mL |
| CCCCCCCCCCCCOC(=O)c1cc(O)c(O)c(O)c1 [Lauryl gallate, lauryl gallate] | 64 µg/mL |
| CC[C@H]1OC(=O)[C@H](C)[C@@H](O[C@H]2C[C@@](C)(OC)[C@@H](O)[C@H](C)O2)[C@H](C)[C@@H](O[C@@H]2O[C@H](C)C[C@H](N(C)C)[C@H]2O)[C@](C)(O)C[C@@H](C)C(=O)[C@H](C)[C@@H](O)[C@]1(C)O | ≥ 4 µg/mL |
| CCCCCCCCCCCCCCCCCCOC(=O)c1cc(O)c(O)c(O)c1 [Stearyl gallate (SG), stearyl gallate] | > 1020 µg/mL |

Now look at this entry.
Prompt: Report MIC for COC(=O)c1cc(O)c(O)c(O)c1 [Methyl gallate (MG), methyl gallate]
Response: > 1020 µg/mL

---

Recorded MIC for the following compounds
tested on: MRSA 3795; test: microbe, parasite or virus in culture; type: cell-based, Staphylococcus aureus; settings: Staphylococcus aureus; MRSA 3795 (human/nose); read-out: MIC

Examples with their reported MIC follow.
| compound | obs.value |
| --- | --- |
| CCOC(=O)c1cc(O)c(O)c(O)c1 [Ethyl gallate (EG), ethyl gallate] | > 1020 µg/mL |
| CCCCOC(=O)c1cc(O)c(O)c(O)c1 [Butyl gallate (BG), Butyl gallate] | 512 µg/mL |
| CCCOC(=O)c1cc(O)c(O)c(O)c1 [Propyl gallate, propyl gallate] | 512 µg/mL |
| CCn1cc(C(=O)O)c(=O)c2cc(F)c(N3CCNCC3)cc21 [NOR, norfloxacin] | 0.5 µg/mL |
| CCCCCCCCCCCCCCCCCCOC(=O)c1cc(O)c(O)c(O)c1 [Stearyl gallate (SG), stearyl gallate] | > 1020 µg/mL |
| CC[C@H]1OC(=O)[C@H](C)[C@@H](O[C@H]2C[C@@](C)(OC)[C@@H](O)[C@H](C)O2)[C@H](C)[C@@H](O[C@@H]2O[C@H](C)C[C@H](N(C)C)[C@H]2O)[C@](C)(O)C[C@@H](C)C(=O)[C@H](C)[C@@H](O)[C@]1(C)O [ERY, erythromycin] | ≥ 128 µg/mL |
| Cc1onc(-c2ccccc2)c1C(=O)N[C@@H]1C(=O)N2[C@@H]1SC(C)(C)[C@@H]2C(=O)O [OXA, oxacillin] | ≥ 128 µg/mL |
| O=C(N[C@H](CO)[C@H](O)c1ccc([N+](=O)[O-])cc1)C(Cl)Cl [CL, chloramphenicol] | ≥ 128 µg/mL |
| COC(=O)c1cc(O)c(O)c(O)c1 [Methyl gallate (MG), methyl gallate] | > 1020 µg/mL |

Now for the compound whose MIC we want.
Prompt: Dear colleague, please send me the reported MIC for CCCCCCCCCCCCOC(=O)c1cc(O)c(O)c(O)c1 [Lauryl gallate, lauryl gallate] when you can.
Response: 64 µg/mL
